test system: HUVEC/MSC spheroids viability; test: Human HUVEC/MSC cell line growth inhibition [KRAS2]; details: curve of first compound; second compound 0.03 µM
pIC50: −log10 of the molar value.
Listed here: items and their measured pIC50.
assay-readout: pIC50

• CN(C)C/C=C/C(=O)Nc1cc2c(Nc3ccc(F)c(Cl)c3)ncnc2cc1O[C@H]1CCOC1 + C=CC(=O)N1CCN(c2nc(OCC3CCCN3C)nc3c2CCN(c2cccc4cccc(C)c24)C3)CC1CC#N = < 7.00
• CCN1CCN(Cc2ccc(Nc3ncc(F)c(-c4cc(F)c5nc(C)n(C(C)C)c5c4)n3)nc2)CC1 + C=CC(=O)N1CCN(c2nc(OCC3CCCN3C)nc3c2CCN(c2cccc4cccc(C)c24)C3)CC1CC#N = < 6.00
• CC(C)n1nc(-c2ccc3oc(N)nc3c2)c2c(N)ncnc21 + C=CC(=O)N1CCN(c2nc(OCC3CCCN3C)nc3c2CCN(c2cccc4cccc(C)c24)C3)CC1CC#N = 8.17
